These measurements were taken from paper PMC9075995.

# Tested on: E. faecalis ATCC 29212
# testSummary: MIC and MBC by broth microdilution, subculture on agar
# Format: cell-based, Enterococcus faecalis
# conditions: E. faecalis ATCC 29212; second line per compound; subculture on agar 24 h, 37 °C
quantity: MBC/MFC

Past entries and their recorded results:
[[record]]
compound = "CCc1cc(CC)n(C(N)=S)n1 [Compound 1b]"
quantity = "MBC/MFC"
recordedresult = ">1000 µg/mL"

[[record]]
compound = "NC(=S)n1nc(-c2ccccc2)cc1O [Compound 1c]"
quantity = "MBC/MFC"
recordedresult = ">1000 µg/mL"


Record Cc1cc(O)n(C(N)=S)n1 [Compound 1d] , field MBC/MFC: >1000 µg/mL

Record Cc1ccc(C(C)C)cc1.Cc1ccc(C(C)C)cc1.[Cl][Ru][Cl].[Cl][Ru][Cl] [Dimer, dichloro(p-cymene)ruthenium(II)dimer, reference compound] , field MBC/MFC: >1000 µg/mL

Record Cc1cc(C)n(C(N)=S)n1 [Compound 1a] , field MBC/MFC: >1000 µg/mL

Record Cc1cc(C)n(C(N)=S)n1.Cc1ccc(C(C)C)cc1.[Cl][Ru][Cl] [Compound 2a] , field MBC/MFC: 125 µg/mL
